Every entry's value here was drawn from ChEMBL document CHEMBL3885861.

Listed compounds paired with reported ALP
Organism: Rattus norvegicus
MEASUREMENT DESCRIPTION: Open TG-GATES - Regimen: Single
Format: toxicity, organism-based, Sprague-Dawley
Design: regimen Single, gender Male, age 6 weeks
TEST CONDITIONS: in vivo, po, 100 mg/kg, 6 h, tissue Plasma, route gavage, dose level Low
Write the answer as a number in IU/L, unit excluded.

Worked cases, answers included:
{"columns": ["COMPOUND", "ALP (IU/L)"],
 "data": [
  ["NC(N)=Nc1nc(CSCCC(N)=NS(N)(=O)=O)cs1 [FAMOTIDINE]", 808.4],
  ["COC1=CC(=O)C[C@@H](C)[C@]12Oc1c(Cl)c(OC)cc(OC)c1C2=O [GRISEOFULVIN]", 1063.4],
  ["CCOC(=O)CCC(=O)O[C@H]1[C@H](O[C@@H]2[C@@H](C)[C@H](O[C@H]3C[C@@](C)(OC)[C@@H](O)[C@H](C)O3)[C@@H](C)C(=O)O[C@H](CC)[C@@](C)(O)[C@H](O)[C@@H](C)C(=O)[C@H](C)C[C@@]2(C)O)O[C@H](C)C[C@@H]1N(C)C [ERYTHROMYCIN ETHYLSUCCINATE]", 1420.4]
]}

Next item in the queue.
## Task Given COc1ccc2[nH]c([S+]([O-])Cc3ncc(C)c(OC)c3C)nc2c1 (centres undefined) [OMEPRAZOLE] , state its recorded ALP.
## Result 849

---

Species: Rattus norvegicus
MEASUREMENT DESCRIPTION: Open TG-GATES - Regimen: Single
Type: toxicity, organism-based, Sprague-Dawley
Parameters: regimen Single, gender Male, age 6 weeks
TEST CONDITIONS: in vivo, po, 300 mg/kg, 9 h, tissue Blood, route gavage, dose level Middle
Listed compounds paired with reported Plat
Write the answer as a number in x10_4/uL, unit excluded.

Worked cases, answers included:
{"columns": ["COMPOUND", "UNIT ABBREV", "Plat"],
 "data": [
  ["COC1=CC(=O)C[C@@H](C)[C@]12Oc1c(Cl)c(OC)cc(OC)c1C2=O", "x10_4/uL", 115.4],
  ["COc1ccc2[nH]c([S+]([O-])Cc3ncc(C)c(OC)c3C)nc2c1 (centres undefined)", "x10_4/uL", 117.1],
  ["NC(N)=Nc1nc(CSCCC(N)=NS(N)(=O)=O)cs1", "x10_4/uL", 117.6]
]}

Next item in the queue.
## Task Given CCOC(=O)CCC(=O)O[C@H]1[C@H](O[C@@H]2[C@@H](C)[C@H](O[C@H]3C[C@@](C)(OC)[C@@H](O)[C@H](C)O3)[C@@H](C)C(=O)O[C@H](CC)[C@@](C)(O)[C@H](O)[C@@H](C)C(=O)[C@H](C)C[C@@]2(C)O)O[C@H](C)C[C@@H]1N(C)C [ERYTHROMYCIN ETHYLSUCCINATE] , state its recorded Plat.
## Result 125.3

---

Listed compounds paired with reported AST
Species on record: Rattus norvegicus
MEASUREMENT DESCRIPTION: Open TG-GATES - Regimen: Daily Repeat
Type: toxicity, organism-based, Sprague-Dawley
Parameters: regimen Daily Repeat, gender Male, age 6 weeks
TEST CONDITIONS: in vivo, po, 300 mg/kg, […], tissue Plasma, route gavage, dose level Middle, time 7 day
Write the answer as a number in IU/L, unit excluded.

Worked cases, answers included:
{"columns": ["COMPOUND", "UNIT ABBREV", "AST"],
 "data": [
  ["CCOc1ccc(NC(=O)CC(C)O)cc1 (stereo not given)", "IU/L", 67.4],
  ["NC(N)=Nc1nc(CSCCC(N)=NS(N)(=O)=O)cs1", "IU/L", 65.2],
  ["CCOC(=O)CCC(=O)O[C@H]1[C@H](O[C@@H]2[C@@H](C)[C@H](O[C@H]3C[C@@](C)(OC)[C@@H](O)[C@H](C)O3)[C@@H](C)C(=O)O[C@H](CC)[C@@](C)(O)[C@H](O)[C@@H](C)C(=O)[C@H](C)C[C@@]2(C)O)O[C@H](C)C[C@@H]1N(C)C [ERYTHROMYCIN ETHYLSUCCINATE]", "IU/L", 70.4],
  ["COc1ccc2[nH]c([S+]([O-])Cc3ncc(C)c(OC)c3C)nc2c1 (stereo not given)", "IU/L", 63.8]
]}

## Task Given "COC1=CC(=O)C[C@@H](C)[C@]12Oc1c(Cl)c(OC)cc(OC)c1C2=O" , state its recorded AST.
## Result 58.4

---

Species on record: Rattus norvegicus
MEASUREMENT DESCRIPTION: Open TG-GATES - Regimen: Single
Format: toxicity, organism-based, Sprague-Dawley
Parameters: regimen Single, gender Male, age 6 weeks
TEST CONDITIONS: in vivo, po, 100 mg/kg, 6 h, tissue Plasma, route gavage, dose level Low
Listed molecules paired with reported DBIL
Please make sure the unit comes right after the number.

Worked cases, answers included:
{"columns": ["MOLECULE", "RESULT TYPE", "RESULT"],
 "data": [
  ["COC1=CC(=O)C[C@@H](C)[C@]12Oc1c(Cl)c(OC)cc(OC)c1C2=O [GRISEOFULVIN]", "DBIL", "0.094 mg/dL"],
  ["CCOC(=O)CCC(=O)O[C@H]1[C@H](O[C@@H]2[C@@H](C)[C@H](O[C@H]3C[C@@](C)(OC)[C@@H](O)[C@H](C)O3)[C@@H](C)C(=O)O[C@H](CC)[C@@](C)(O)[C@H](O)[C@@H](C)C(=O)[C@H](C)C[C@@]2(C)O)O[C@H](C)C[C@@H]1N(C)C [ERYTHROMYCIN ETHYLSUCCINATE]", "DBIL", "0 mg/dL"],
  ["COc1ccc2[nH]c([S+]([O-])Cc3ncc(C)c(OC)c3C)nc2c1 (centres undefined) [OMEPRAZOLE]", "DBIL", "0.074 mg/dL"]
]}

Next item in the queue.
## Task Given NC(N)=Nc1nc(CSCCC(N)=NS(N)(=O)=O)cs1 [FAMOTIDINE] , state its recorded DBIL.
## Result 0.068 mg/dL

---

Species: Rattus norvegicus
MEASUREMENT DESCRIPTION: Open TG-GATES - Regimen: Daily Repeat
Format: toxicity, organism-based, Sprague-Dawley
Set-up: regimen Daily Repeat, gender Male, age 6 weeks
TEST CONDITIONS: in vivo, po, 1000 mg/kg, […], tissue Liver, route gavage, dose level High, time 14 day
RESULT TYPE: LIVER (g)
Write the answer as a number in g, unit excluded.

## Task Given COC1=CC(=O)C[C@@H](C)[C@]12Oc1c(Cl)c(OC)cc(OC)c1C2=O [GRISEOFULVIN] , state its recorded LIVER.
## Result 14.6

---

Organism: Rattus norvegicus
MEASUREMENT DESCRIPTION: Open TG-GATES - Regimen: Single
Assay type: toxicity, organism-based, Sprague-Dawley
Design: regimen Single, gender Male, age 6 weeks
TEST CONDITIONS: in vivo, po, 30 mg/kg, 6 h, tissue Plasma, route gavage, dose level Middle
Listed compounds paired with reported TBIL
Write the answer as a number in mg/dL, unit excluded.

Worked cases, answers included:
{"columns": ["SMILES INPUT", "TBIL, mg/dL"],
 "data": [
  ["CN(C)CCCN1c2ccccc2CCc2ccc(Cl)cc21", 0.068],
  ["CC1=C(/C=C/C(C)=C/C=C/C(C)=C/CO)C(C)(C)CCC1", 0.01],
  ["CN(C)CCCN1c2ccccc2CCc2ccccc21", 0.062]
]}

Next item in the queue.
## Task Given "CN(C)CCN(Cc1cccs1)c1ccccn1" , state its recorded TBIL.
## Result 0.024

---

Listed compounds paired with reported KIDNEY_R
Organism: Rattus norvegicus
MEASUREMENT DESCRIPTION: Open TG-GATES - Regimen: Single
Assay type: toxicity, organism-based, Sprague-Dawley
Parameters: regimen Single, gender Male, age 6 weeks
TEST CONDITIONS: in vivo, po, 10 mg/kg, 3 h, tissue Kidney, route gavage, dose level Low
Write the answer as a number in g, unit excluded.

Worked cases, answers included:
{"columns": ["COMPOUND", "READOUT NUMBER"],
 "data": [
  ["CC1=C(/C=C/C(C)=C/C=C/C(C)=C/CO)C(C)(C)CCC1", 0.9],
  ["CN(C)CCN(Cc1cccs1)c1ccccn1", 0.8],
  ["CC(C)OC(=O)C(C)(C)Oc1ccc(C(=O)c2ccc(Cl)cc2)cc1 [FENOFIBRATE]", 0.8],
  ["CN(C)CCCN1c2ccccc2CCc2ccccc21", 0.9]
]}

Next item in the queue.
## Task Given "CN(C)CCCN1c2ccccc2CCc2ccc(Cl)cc21" , state its recorded KIDNEY_R.
## Result 1
